testedTarget: STE20-like serine/threonine-protein kinase (Homo sapiens) (UniProt Q9H2G2)
Sequence (Q9H2G2 whole entry, looked up): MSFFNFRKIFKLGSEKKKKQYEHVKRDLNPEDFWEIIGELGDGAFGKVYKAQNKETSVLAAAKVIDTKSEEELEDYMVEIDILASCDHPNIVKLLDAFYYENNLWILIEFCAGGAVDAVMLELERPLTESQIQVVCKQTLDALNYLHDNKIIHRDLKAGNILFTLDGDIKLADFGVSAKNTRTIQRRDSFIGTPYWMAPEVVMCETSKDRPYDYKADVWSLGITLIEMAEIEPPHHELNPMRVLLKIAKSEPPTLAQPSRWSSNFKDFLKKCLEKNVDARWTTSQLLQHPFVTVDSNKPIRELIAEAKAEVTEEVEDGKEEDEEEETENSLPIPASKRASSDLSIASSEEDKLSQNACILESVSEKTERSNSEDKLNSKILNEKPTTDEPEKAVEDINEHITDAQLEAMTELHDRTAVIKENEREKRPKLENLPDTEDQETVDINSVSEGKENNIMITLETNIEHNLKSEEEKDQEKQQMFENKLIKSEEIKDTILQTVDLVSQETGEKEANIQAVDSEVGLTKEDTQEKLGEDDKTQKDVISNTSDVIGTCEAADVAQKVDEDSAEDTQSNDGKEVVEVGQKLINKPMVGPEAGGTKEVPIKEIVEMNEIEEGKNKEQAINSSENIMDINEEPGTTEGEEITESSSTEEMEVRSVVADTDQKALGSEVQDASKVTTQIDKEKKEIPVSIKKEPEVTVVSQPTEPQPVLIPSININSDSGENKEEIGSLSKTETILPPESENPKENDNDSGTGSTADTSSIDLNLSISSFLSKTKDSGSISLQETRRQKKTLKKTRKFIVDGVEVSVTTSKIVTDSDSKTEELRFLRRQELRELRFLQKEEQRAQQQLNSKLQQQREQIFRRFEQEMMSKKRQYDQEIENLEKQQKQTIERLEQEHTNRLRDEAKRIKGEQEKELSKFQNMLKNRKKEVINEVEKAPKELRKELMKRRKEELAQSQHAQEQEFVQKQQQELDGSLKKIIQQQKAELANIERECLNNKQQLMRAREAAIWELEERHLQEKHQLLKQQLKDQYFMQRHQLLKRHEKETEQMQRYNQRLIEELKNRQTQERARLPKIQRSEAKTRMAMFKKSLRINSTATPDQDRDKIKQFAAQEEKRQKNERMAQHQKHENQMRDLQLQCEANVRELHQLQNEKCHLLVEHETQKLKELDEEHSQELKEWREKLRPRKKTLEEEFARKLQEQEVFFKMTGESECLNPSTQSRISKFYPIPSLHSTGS
assaySummary: SLK binders by thermal stabilization, biophysical, purified human kinase, DSF (AID 514)
measurementConditions: differential scanning fluorimetry Tm shift, at 10 µM, protein 2 µM, buffer 10 mM HEPES, pH 7.5, NaCl 150 mM, hits give high values
readoutKind: Tm shift

{"compound": "Oc1cccc(-c2cnc3ccc(NC4CCOCC4)nn23)c1", "Tm shift": "4.6 C"}

Give Tm shift for all compounds that follow.
1. O=C(Nc1cccc(Nc2cc(Nc3cccc(C(F)(F)F)c3)ncn2)c1)C1CC1
2. O=Nc1c(-c2c(O)[nH]c3cc(Br)ccc23)[nH]c2ccccc12
3. Cn1cc(/C=C2\C(=O)Nc3ccc(S(N)(=O)=O)cc32)c2ccccc21
4. FC(F)(F)Oc1cccc(-c2cnc3ccc(NC4CCOCC4)nn23)c1
5. Fc1ccc(-c2cnc3ccc(NC4CCOCC4)nn23)cc1
6. CCC(CO)Nc1ccc2ncc(-c3ccc(F)c(Cl)c3)n2n1 (stereo not given)

["3.4 C", "4.6 C", "5 C", "3.6 C", "3.6 C", "3.8 C"]
